# Test system: CAKI-1 renal
# PROTOCOL NOTES: NCI tumour cell line growth inhibition, 48 h; in the data active = GI50 below about 0.43 µM; inactive = the rest
# output must be one of 1.0 (active), 0.0 (inactive)

Example cases with answers are listed next.
[
  {
    "COMPOUND": "CC(=O)N1N=C2/C(=C/c3ccc(Cl)cc3)CC(C)CC2C1c1ccc(Cl)cc1 (stereo unspecified)",
    "TGT": "CAKI-1 renal",
    "LABEL CLASS": 0.0
  },
  {
    "COMPOUND": "CC(=O)OC1CC2C3CCC4C[C@@H](NC(=O)C=C(C)C)CC[C@]4(C)C3CC[C@]2(C)[C@H]1C(C)N(C)C (stereo partly specified)",
    "TGT": "CAKI-1 renal",
    "LABEL CLASS": 0.0
  },
  {
    "COMPOUND": "O=C(Nc1ccccc1)c1cc(S(=O)(=O)Nc2nc3ccccc3o2)c(SCc2ccccc2)cc1Cl",
    "TGT": "CAKI-1 renal",
    "LABEL CLASS": 0.0
  },
  {
    "COMPOUND": "Cn1c(=O)c(Oc2ccc(F)cc2F)cc2cnc(NC3CCS(=O)(=O)CC3)nc21",
    "TGT": "CAKI-1 renal",
    "LABEL CLASS": 0.0
  },
  {
    "COMPOUND": "CCN(CC)C1CCC(Nc2c(C(C)=O)cnc3ccc(-c4ccc(O)c(Cl)c4)cc23)CC1 (stereo unspecified)",
    "TGT": "CAKI-1 renal",
    "LABEL CLASS": 1.0
  },
  {
    "COMPOUND": "CCN1Cc2nc3sc(C)c(C)c3c(=O)n2C=C1C",
    "TGT": "CAKI-1 renal",
    "LABEL CLASS": 0.0
  }
]

Assay outcome for `COc1cc(/C=C2\C[C@H]3[C@@H]4CC=C5C[C@@H](O)CC[C@]5(C)[C@H]4CC[C@]3(C)[C@H]2O)ccc1OCCCn1ccnc1` : what was it?
0.0

Now this one: `O=C(Nc1ccc(/C=C/c2ccc(NC(=O)c3cc(S(=O)(=O)O)c4cccnc4c3O)cc2S(=O)(=O)O)c(S(=O)(=O)O)c1)c1cc(S(=O)(=O)O)c2cccnc2c1O`
0.0

---

TGI values for the molecules below.
# Test system: SF-295 CNS
# PROTOCOL NOTES: NCI tumour cell line growth inhibition, 48 h

Before answering, review these 4 worked examples.
[
  {
    "MOLECULE": "COC(=O)C1(C(=O)OC)N=C(C)OC1/C=C/c1ccccc1 (stereo unspecified)",
    "TGI": "> 100 µM"
  },
  {
    "MOLECULE": "COc1cccc(NC(=O)C(=O)C(C(=O)c2ccccc2F)C2OC(=O)c3ccccc32)c1 (stereo unspecified)",
    "TGI": "> 100 µM"
  },
  {
    "MOLECULE": "COc1cc2c(cc1OC)C1Cc3cc(OC)c(OC)cc3C(C2)N1C",
    "TGI": "> 100 µM"
  },
  {
    "MOLECULE": "COC(=O)C1=C(C(=O)OC)C2(C)Nc3ccccc3C2=C(c2ccccc2)C1 (stereo unspecified)",
    "TGI": "58 µM"
  }
]

Find the recorded TGI belonging to CC#CC1C2CCCC1(CSc1ccccc1)NC(=O)O2 (stereo unspecified) and report it.
> 100 µM

Now this one: `Oc1cc2ccccc2c(-c2c(O)c(O)cc3ccccc23)c1O`
> 29.6 µM

Now this one: `COc1cc(/C=C2\C[C@H]3[C@@H]4CC=C5C[C@@H](O)CC[C@]5(C)[C@H]4CC[C@]3(C)[C@H]2O)ccc1OCCCn1ccnc1`
6.32 µM

Entry source: PubChem BioAssay (NCI)
